- study_system: T1, TraI36 (F TraI relaxase domain) (Escherichia coli F plasmid (F factor), UniProt P14565 1-330)
- T1 sequence: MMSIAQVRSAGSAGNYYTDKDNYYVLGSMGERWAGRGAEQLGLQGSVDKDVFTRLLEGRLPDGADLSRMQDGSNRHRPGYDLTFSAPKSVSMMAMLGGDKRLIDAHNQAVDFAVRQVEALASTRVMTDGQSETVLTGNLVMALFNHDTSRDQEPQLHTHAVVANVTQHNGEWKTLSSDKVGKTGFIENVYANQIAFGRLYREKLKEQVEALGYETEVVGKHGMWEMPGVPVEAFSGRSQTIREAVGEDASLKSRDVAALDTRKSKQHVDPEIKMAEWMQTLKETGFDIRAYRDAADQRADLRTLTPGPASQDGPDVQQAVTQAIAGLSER
- assay_details: fluorescence anisotropy and intensity
quantity_measured: Kd
Respond with the figure and its unit, in that order.

Known Kd results, listed for orientation:
CGTTTTTGTTGTTTTTGCGTGGGGTGTGGT (ssDNA) [No Hairpin]
16 nM
TTTGCGTGGGGTGTGGT (ssDNA) [WT 17mer]
39 nM
TTTCGGTGGGGTGTGGT (ssDNA) [G151'C/C150'G 17mer]
390 nM

Now examine the next entry.
Provide measured Kd value, entry: CGAAAAACTTGTTTTTCGGTGGGGTGTGGT (structured_DNA) [G167'C/C166'G/G151'C/C150'G Hairpin]
78 nM
